# ASSAY SUMMARY: ATG_BRE_CIS: Attagene CIS-FACTORIAL HepG2 Assay for human Bone Morphogenetic Protein (BMP) Response Element (BRE) (AID 2282933)
# ASSAY CONTEXT: HepG2 BMP response element reporter, Attagene transcription factor profiling; actives raise or lower the signal
Activity calls are given as the source filed them. How the source made its calls: active means hit-call score of the fitted dose curve at least 0.9, where 1 is the maximum; inactive means score below 0.9.
PARAMETER MEASURED: outcome

Guide cases for outcome, answers given:
>  <MOLECULE>
C[C@]12C=CC(=O)C=C1CC[C@H]1[C@@H]3C[C@@H](O)[C@](O)(C(=O)CO)[C@@]3(C)C[C@H](O)[C@@]12F

>  <outcome>
inactive

$$$$
>  <MOLECULE>
CCOc1ccc2[nH]cc(C(=O)NCc3ccccc3)c(=O)c2n1

>  <outcome>
inactive

$$$$
>  <MOLECULE>
OC[C@H]1O[C@@](CO)(O[C@H]2O[C@H](CO)[C@@H](O)[C@H](O)[C@H]2O)[C@@H](O)[C@@H]1O

>  <outcome>
inactive

$$$$
>  <MOLECULE>
CC(C)c1nnc2ccc(-c3ocnc3-c3cc(F)ccc3F)cn12

>  <outcome>
inactive

$$$$
>  <MOLECULE>
CC(=O)c1ccccc1

>  <outcome>
inactive

$$$$

Sure, the documented outcome for `O=C(NO)C1(NS(=O)(=O)c2ccc(Oc3ccc(F)cc3)cc2)CCOCC1` is inactive

Sure, the documented outcome for CC(C)CC(C)O (stereo unspecified) is inactive

Sure, the documented outcome for `CCCCCCOC(=O)CC(CC(=O)OCCCCCC)(OC(=O)CCC)C(=O)OCCCCCC` is inactive

Sure, the documented outcome for `Cn1cc[nH]c1=S` is inactive

Sure, the documented outcome for `O=C1CN(N=Cc2ccc([N+](=O)[O-])o2)C(=O)N1` is inactive

Sure, the documented outcome for `O=C(Cl)C(F)(F)C(F)(F)C(F)(F)C(=O)Cl` is inactive

###

# Read-out: Monokine induced gamma interferon (MIG), CXCL9 (gene 4283)
# ASSAY SUMMARY: BSK_3C_MIG: BioMAP Diversity Plus: 3C Assay for Monokine induced gamma interferon (MIG) Biomarker Activity (AID 2283021)
# ASSAY CONTEXT: primary human endothelial cells (HUVEC); actives raise or lower the signal
Activity calls are given as the source filed them. Rule for the calls: active = hit-call score of the fitted dose curve at least 0.9, where 1 is the maximum; inactive = score below 0.9.
Bench note: report the call from Y for active, N for inactive

>  <MOLECULE>
COc1cc(C(C)C)c2c(c1)S(=O)(=O)N(COc1cc(=O)n3cccc(OCCN4CCCCC4)c3n1)C2=O

>  <CATEGORY>
N

$$$$

Lookup: I'd appreciate the recorded outcome for `FC(F)=C(F)C(F)(F)C(F)(F)C(F)(F)C(F)(F)C(F)(F)C(F)(F)F` from this test.
Found: N

Lookup: I'd appreciate the recorded outcome for `Cc1ccc(S(=O)(=O)NC(=O)NN2CCCCCC2)cc1` from this test.
Found: N

Lookup: I'd appreciate the recorded outcome for `OC(O)(C(F)C(O)(O)C(F)(F)F)C(F)(F)F` from this test.
Found: N

Lookup: I'd appreciate the recorded outcome for `Nc1ccn([C@@H]2O[C@H](CO)[C@@H](O)[C@@H]2O)c(=O)n1` from this test.
Found: N

Lookup: I'd appreciate the recorded outcome for `CC1(C)C(=O)N(Cl)C(=O)N1Cl` from this test.
Found: N

Lookup: I'd appreciate the recorded outcome for `Cc1cccc(O)c1C` from this test.
Found: N

###

# Read-out: CYP2C9 (gene 1559)
# ASSAY SUMMARY: LTEA_HepaRG_CYP2C9: Life Technologies and Expression Analysis (LTEA) Assay for CYP2C9 using HepaRG (AID 2283484)
# ASSAY CONTEXT: mRNA level, 48 h; actives raise or lower the signal
Calls of active or inactive are those of the source. How the source made its calls: active means hit-call score of the fitted dose curve at least 0.9, where 1 is the maximum; inactive means score below 0.9.
Bench note: report the call from active, inactive

Please review the following examples before continuing.
>  <SMILES REPR>
O=S(=O)(O)c1ccc(N=Nc2c(O)ccc3cc(S(=O)(=O)O)ccc23)cc1

>  <CATEGORY>
inactive

$$$$
>  <SMILES REPR>
O=C(O)c1ccc2c(c1)nc(C(=O)NC1CCN(C3CC3)CC1)n2Cc1cc(-c2ccc(Cl)s2)on1

>  <CATEGORY>
inactive

$$$$
>  <SMILES REPR>
CCOc1ccc2[nH]cc(C(=O)NCc3ccccc3)c(=O)c2n1

>  <CATEGORY>
inactive

$$$$
>  <SMILES REPR>
CCCCCCOC(=O)CC(CC(=O)OCCCCCC)(OC(=O)CCC)C(=O)OCCCCCC

>  <CATEGORY>
inactive

$$$$
>  <SMILES REPR>
COc1cc(C(C)C)c2c(c1)S(=O)(=O)N(COc1cc(=O)n3cccc(OCCN4CCCCC4)c3n1)C2=O

>  <CATEGORY>
active

$$$$

Lookup: I'd appreciate the recorded outcome for `C[C@]12C=CC(=O)C=C1CC[C@H]1[C@@H]3C[C@@H](O)[C@](O)(C(=O)CO)[C@@]3(C)C[C@H](O)[C@@]12F` from this test.
Found: inactive

Lookup: I'd appreciate the recorded outcome for `C[C@@H](Oc1ccc(CNC(=O)c2cccnc2Oc2ccc3c(c2)OCO3)c(F)c1)C(=O)O` from this test.
Found: inactive

Lookup: I'd appreciate the recorded outcome for `CC(C)C(=O)Nc1ccc([N+](=O)[O-])c(C(F)(F)F)c1` from this test.
Found: active

Lookup: I'd appreciate the recorded outcome for `OCc1ccccc1` from this test.
Found: inactive

Lookup: I'd appreciate the recorded outcome for `c1ccc2cc3ccccc3cc2c1` from this test.
Found: inactive

Lookup: I'd appreciate the recorded outcome for `CNC(C)=O` from this test.
Found: inactive

Lookup: I'd appreciate the recorded outcome for `OC[C@H]1O[C@@](CO)(O[C@H]2O[C@H](CO)[C@@H](O)[C@H](O)[C@H]2O)[C@@H](O)[C@@H]1O` from this test.
Found: inactive

Lookup: I'd appreciate the recorded outcome for `CCCCCOC(C)=O` from this test.
Found: inactive

Lookup: I'd appreciate the recorded outcome for `NC(=O)N1c2ccccc2C=Cc2ccccc21` from this test.
Found: inactive

###

# TESTED SYSTEM: Androgen Receptor/SRC-1 Co-activator, AR (gene 367)
# ASSAY SUMMARY: OT_AR_ARSRC1_0480: Odyssey Thera (OT) 8-hour HEK293T Protein-Complementation Assay for Androgen Receptor/SRC-1 Co-activator (AID 2283354);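 further: hits raise the complementation signal above DMSO so AC50 marks enhancers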
Records with an inconclusive call do not appear. Calls of active or inactive are those of the source. Rule for the calls: active = hit-call score of the fitted dose curve at least 0.9, where 1 is the maximum; inconclusive = response in the unintended direction; inactive = score below 0.9.
Bench note: report the call from active, inactive

>  <SMILES REPR>
Cc1nc(-c2ccccn2)ncc1C(=O)Nn1cc(C)c2cc(F)ccc21

>  <CATEGORY>
inactive

$$$$
>  <SMILES REPR>
CCCCCCCCCCCCCCCCOS(=O)(=O)O

>  <CATEGORY>
inactive

$$$$
>  <SMILES REPR>
CCCCCCOC(=O)CC(CC(=O)OCCCCCC)(OC(=O)CCC)C(=O)OCCCCCC

>  <CATEGORY>
inactive

$$$$
>  <SMILES REPR>
COCc1nnc(-c2ccc[n+]([O-])c2)n1-c1c(Cl)c(Cl)cc2[nH]c(=O)c(=O)[nH]c12

>  <CATEGORY>
inactive

$$$$

Lookup: I'd appreciate the recorded outcome for `COc1cc(C(C)C)c2c(c1)S(=O)(=O)N(COc1cc(=O)n3cccc(OCCN4CCCCC4)c3n1)C2=O` from this test.
Found: active

Lookup: I'd appreciate the recorded outcome for `CCN(CC)C(=S)SSC(=S)N(CC)CC` from this test.
Found: active

Lookup: I'd appreciate the recorded outcome for `OCCOCCOCCO` from this test.
Found: inactive

Lookup: I'd appreciate the recorded outcome for `C=CCc1cc(S(=O)(=O)c2ccc(O)c(CC=C)c2)ccc1O` from this test.
Found: active

###

# Read-out: Insulin Like Growth Factor 1 (IGF1), IGF1 (gene 3479)
# ASSAY SUMMARY: LTEA_HepaRG_IGF1: Life Technologies and Expression Analysis (LTEA) Assay for Insulin Like Growth Factor 1 (IGF1) using HepaRG (AID 2283506)
# ASSAY CONTEXT: mRNA level, 48 h; actives raise or lower the signal
Active and inactive are the calls of the source. The calls were made as follows: active = hit-call score of the fitted dose curve at least 0.9, where 1 is the maximum; inactive = score below 0.9.
PARAMETER MEASURED: AC50

>  <MOLECULE>
COc1cc(C(C)C)c2c(c1)S(=O)(=O)N(COc1cc(=O)n3cccc(OCCN4CCCCC4)c3n1)C2=O

>  <PARAMETER MEASURED>
AC50

>  <RESULT VALUE>
inactive

$$$$
>  <MOLECULE>
Cc1ccc(S(=O)(=O)NC(=O)NN2CCCCCC2)cc1

>  <PARAMETER MEASURED>
AC50

>  <RESULT VALUE>
inactive

$$$$
>  <MOLECULE>
NC(=O)N(O)[C@@H]1COc2cc(OCc3ccccc3)ccc21

>  <PARAMETER MEASURED>
AC50

>  <RESULT VALUE>
inactive

$$$$
>  <MOLECULE>
CCCOc1ccc(S(=O)(=O)N2CCN(CC)CC2)cc1-c1nc2c(CC)n(Cc3ccccn3)nc2c(=O)[nH]1

>  <PARAMETER MEASURED>
AC50

>  <RESULT VALUE>
14.5 µM (active)

$$$$
>  <MOLECULE>
Nc1ccn([C@@H]2O[C@H](CO)[C@@H](O)[C@@H]2O)c(=O)n1

>  <PARAMETER MEASURED>
AC50

>  <RESULT VALUE>
inactive

$$$$
>  <MOLECULE>
COS(C)(=O)=O

>  <PARAMETER MEASURED>
AC50

>  <RESULT VALUE>
inactive

$$$$
>  <MOLECULE>
C[C@@H](Oc1ccc(CNC(=O)c2cccnc2Oc2ccc3c(c2)OCO3)c(F)c1)C(=O)O

>  <PARAMETER MEASURED>
AC50

>  <RESULT VALUE>
inactive

$$$$
>  <MOLECULE>
CCOC(N)=O

>  <PARAMETER MEASURED>
AC50

>  <RESULT VALUE>
inactive

$$$$
>  <MOLECULE>
CC(C)c1nnc2ccc(-c3ocnc3-c3cc(F)ccc3F)cn12

>  <PARAMETER MEASURED>
AC50

>  <RESULT VALUE>
66.1 µM (active)

$$$$
>  <MOLECULE>
NNC(=O)c1ccncc1

>  <PARAMETER MEASURED>
AC50

>  <RESULT VALUE>
inactive

$$$$

Sure, the documented AC50 for `CCCCCCCCCCCCCCO` is inactive

Sure, the documented AC50 for `CCCCOC(=O)c1ccccc1` is inactive

Sure, the documented AC50 for `C=CN1CCCC1=O` is inactive

Sure, the documented AC50 for `O=S1(=O)CCCO1` is inactive

Sure, the documented AC50 for `CCc1cccc(CC)c1N` is inactive

Sure, the documented AC50 for `c1ccc2ncccc2c1` is inactive
